List of Binding of human monoclonal antibody CRJB to linear peptide (PEPSCAN-ELISA signal) values.
tested on: human monoclonal antibody CRJB; format: binding
measurement.label: Binding of human monoclonal antibody CRJB to linear peptide (PEPSCAN-ELISA signal)

{"columns": ["query.sequence", "numeric.value"],
 "data": [
  ["EVHLPDVHNQVSGVD", 150],
  ["DGDEAEDFVEVHLPD", 123],
  ["NQVSGVDLGLPNWGK", 138],
  ["AEDFVEVHLPDVHNQ", 138],
  ["DFVEVHLPDVHNQVS", 141],
  ["HLPDVHNQVSGVDLG", 150],
  ["VHLPDVHNQVSGVDL", 114],
  ["FVEVHLPDVHNQVSG", 143],
  ["PDVHNQVSGVDLGLP", 129],
  ["DEAEDFVEVHLPDVH", 136],
  ["FKDGDEAEDFVEVHL", 76],
  ["TVFKDGDEAEDFVEV", 124],
  ["VFKDGDEAEDFVEVH", 106],
  ["HNQVSGVDLGLPNWG", 106],
  ["DPSTVFKDGDEAEDF", 147],
  ["GDEAEDFVEVHLPDV", 124],
  ["HPLADPSTVFKDGDE", 141],
  ["ADPSTVFKDGDEAED", 152],
  ["KDGDEAEDFVEVHLP", 93],
  ["EAEDFVEVHLPDVHN", 117],
  ["EDFVEVHLPDVHNQV", 141],
  ["VHNQVSGVDLGLPNW", 119],
  ["LADPSTVFKDGDEAE", 116],
  ["VHPLADPSTVFKDGD", 138],
  ["PSTVFKDGDEAEDFV", 143],
  ["STVFKDGDEAEDFVE", 120],
  ["LPDVHNQVSGVDLGL", 154],
  ["PLADPSTVFKDGDEA", 125],
  ["VEVHLPDVHNQVSGV", 141],
  ["DVHNQVSGVDLGLPN", 133]
]}

* * *

tested on: human monoclonal antibody CRJB; format: binding
Recorded Binding of CRJB (10 μg/ml) to looped/cyclic peptide (PEPSCAN-ELISA) values for a group of sequences are listed next.
measurement.label: Binding of CRJB (10 μg/ml) to looped/cyclic peptide (PEPSCAN-ELISA)

{"columns": ["query.sequence", "study.target", "numeric.value"],
 "data": [
  ["YTIFNKTLMEADAHY", "human monoclonal antibody CRJB", 79],
  ["DALESIMTTKSVSFR", "human monoclonal antibody CRJB", 127],
  ["QSSLLQQHMELLESS", "human monoclonal antibody CRJB", 85],
  ["TWVAMQTSNETKWCP", "human monoclonal antibody CRJB", 89],
  ["RKREECLDALESIMT", "human monoclonal antibody CRJB", 96],
  ["EIEHLVVEELVRKRE", "human monoclonal antibody CRJB", 89],
  ["CLRVGGRCHPHVNGV", "human monoclonal antibody CRJB", 104],
  ["LGLRLMDGTWVAMQT", "human monoclonal antibody CRJB", 108],
  ["ESSVIPLVHPLADPS", "human monoclonal antibody CRJB", 92],
  ["KSVSFRRLSHLRKLV", "human monoclonal antibody CRJB", 97],
  ["ELLESSVIPLVHPLA", "human monoclonal antibody CRJB", 88],
  ["YKSVRTWNEILPSKG", "human monoclonal antibody CRJB", 94],
  ["VFFNGIILGPDGNVL", "human monoclonal antibody CRJB", 93],
  ["LVHPLADPSTVFKDG", "human monoclonal antibody CRJB", 116],
  ["LLQQHMELLESSVIP", "human monoclonal antibody CRJB", 129],
  ["HYKSVRTWNEILPSK", "human monoclonal antibody CRJB", 101],
  ["PPDQLVNLHDFRSDE", "human monoclonal antibody CRJB", 83],
  ["KLKLCGVLGLRLMDG", "human monoclonal antibody CRJB", 63],
  ["HLVVEELVRKREECL", "human monoclonal antibody CRJB", 105],
  ["AHYKSVRTWNEILPS", "human monoclonal antibody CRJB", 106],
  ["MEADAHYKSVRTWNE", "human monoclonal antibody CRJB", 86],
  ["FRRLSHLRKLVPGFG", "human monoclonal antibody CRJB", 54],
  ["SETCGFVDERGLYKS", "human monoclonal antibody CRJB", 78],
  ["TWNEILPSKGCLRVG", "human monoclonal antibody CRJB", 113],
  ["LESIMTTKSVSFRRL", "human monoclonal antibody CRJB", 78],
  ["NGVFFNGIILGPDGN", "human monoclonal antibody CRJB", 85],
  ["LYKSLKGACKLKLCG", "human monoclonal antibody CRJB", 79],
  ["DQLVNLHDFRSDEIE", "human monoclonal antibody CRJB", 27],
  ["SVIPLVHPLADPSTV", "human monoclonal antibody CRJB", 106],
  ["EECLDALESIMTTKS", "human monoclonal antibody CRJB", 70],
  ["GKAYTIFNKTLMEAD", "human monoclonal antibody CRJB", 100],
  ["KREECLDALESIMTT", "human monoclonal antibody CRJB", 64],
  ["IFNKTLMEADAHYKS", "human monoclonal antibody CRJB", 86],
  ["VRKREECLDALESIM", "human monoclonal antibody CRJB", 66],
  ["GRCHPHVNGVFFNGI", "human monoclonal antibody CRJB", 102],
  ["GGRCHPHVNGVFFNG", "human monoclonal antibody CRJB", 110],
  ["HDFRSDEIEHLVVEE", "human monoclonal antibody CRJB", 79],
  ["SVSFRRLSHLRKLVP", "human monoclonal antibody CRJB", 84]
]}

The measurements presented in this section are drawn from patent US20060263802A1.
